These measurements were taken from patent US20030176314A1.

target: rat NPFF2 receptor (Rattus norvegicus); construct: The full-length NPFF2 was amplified from rat spinal cord cDNA; expressed in transfected cells; host or cells: not given; assay: Competition binding at cloned rat NPFF2 receptor ([125I]1DMeNPFF displacement); conditions: Table 3, recombinant rat NPFF2; read-out: rNPFF2 Ki
Sequence (Q9EQD2 whole entry): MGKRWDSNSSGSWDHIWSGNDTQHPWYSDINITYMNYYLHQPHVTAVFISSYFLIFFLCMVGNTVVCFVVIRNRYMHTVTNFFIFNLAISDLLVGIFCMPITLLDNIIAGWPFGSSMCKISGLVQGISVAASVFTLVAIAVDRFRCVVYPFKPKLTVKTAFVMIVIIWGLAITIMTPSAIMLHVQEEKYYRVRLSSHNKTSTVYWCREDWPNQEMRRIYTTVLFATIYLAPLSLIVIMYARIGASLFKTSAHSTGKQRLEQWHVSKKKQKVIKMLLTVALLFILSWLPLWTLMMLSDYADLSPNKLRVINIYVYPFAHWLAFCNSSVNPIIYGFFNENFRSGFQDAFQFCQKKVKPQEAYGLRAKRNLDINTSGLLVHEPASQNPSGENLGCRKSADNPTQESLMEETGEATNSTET
pKi: −log10 of the molar value.
OBSERVATION TYPE: pKi

Cc1nc(NC(=N)N)nc2ccc(OCCCCCOc3ccccc3)cc12 [Compound 1005A] : 5.67
CCc1nc(NC(=N)N)nc2ccc(C)cc12 [Compound 1027A] : 5.50

###

Target: norepinephrine (NE) transporter (Rattus norvegicus, UniProt Q63380)
Construct: evaluated at native, tissue-derived transporters
Sequence (Q63380 1-617): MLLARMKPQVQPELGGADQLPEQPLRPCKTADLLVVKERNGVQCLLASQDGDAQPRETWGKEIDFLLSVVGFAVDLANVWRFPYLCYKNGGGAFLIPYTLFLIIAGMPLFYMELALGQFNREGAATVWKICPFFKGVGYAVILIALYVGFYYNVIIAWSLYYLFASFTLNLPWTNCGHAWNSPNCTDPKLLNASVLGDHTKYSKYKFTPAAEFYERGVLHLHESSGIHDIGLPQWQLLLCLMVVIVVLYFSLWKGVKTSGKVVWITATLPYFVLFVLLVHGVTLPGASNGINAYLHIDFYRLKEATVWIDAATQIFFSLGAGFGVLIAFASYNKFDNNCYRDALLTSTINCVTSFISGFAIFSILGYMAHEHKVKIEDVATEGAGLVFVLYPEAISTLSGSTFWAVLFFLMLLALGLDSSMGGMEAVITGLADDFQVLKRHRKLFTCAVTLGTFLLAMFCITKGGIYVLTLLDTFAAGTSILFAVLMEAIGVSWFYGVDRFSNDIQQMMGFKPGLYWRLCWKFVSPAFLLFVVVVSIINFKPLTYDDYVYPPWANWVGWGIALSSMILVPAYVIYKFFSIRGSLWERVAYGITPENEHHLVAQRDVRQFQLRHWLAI
Assay: Binding at native norepinephrine transporter (NE uptake)
Conditions: Table 8
Description: Transporters: The binding properties of compounds were evaluated at native, tissue-derived transporters, namely serotonin (5HT) transporter and norepinephrine (NE) transporter, according to protocols described in Owens (1997), the disclosure of which is hereby incorporated by reference in its entirety into this application. […]
pKi: −log10 of the molar value.
OBSERVATION TYPE: pKi

Cc1nc(NC(=N)N)nc2ccc(Cl)cc12 [Compound 1013A] : 4.39
Cc1cc(NC(=N)N)nc2ccc(Cl)cc12 [Compound 4005A] : 5.08
Cc1ccc2c(C)nc(NC(=N)N)nc2c1 [Compound 3001A, N-(4,7-dimethyl-2-quinazolinyl)guanidine] : 4.67
Cc1nc(NC(=N)N)nc2ccc3ccccc3c12 [Compound 1007A] : 5.71
Cc1ccc2c(C)cc(NC(=N)N)nc2c1 [Compound 4006A, N-(4,7-dimethyl-2-quinolinyl)guanidine] : 4.91
CCc1ccc2c(C)nc(NC(=N)N)nc2c1 [Compound 1020A] : 5.10
CCCCCc1ccc2nc(NC(=N)N)nc(C)c2c1 [Compound 2001A] : 5.94
Cc1cc(NC(=N)N)nc2ccccc12 [Compound 6001A, N-(4-methyl-2-quinolinyl)guanidine] : 4.90
